Reference source for all entries: PubChem BioAssay

- test: RAM pathway blockade in budding yeast – dse1pr::URA3 reporter, 5-FOA selection, pilot screen (AID 869);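 note: 0% = DMSO wells with no growth and 100% = 10 µM 1-NA-PP1 with full growth; RAM network block rescues cells from 5-FOA so hits raise OD615 growth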
- assay-setup: S. cerevisiae dse1pr::URA3 5-FOA growth, OD615, 2 d; at 10 µM; stronger effect = higher value; strain carries analog-sensitive mutant Cbk1 kinase
assay-endpoint: inhibition (%)
One number for each entry, in %.

Some compounds with recorded inhibition:
compound	inhibition / %
CCN(C1CCCCC1)S(=O)(=O)c1ccc(S(=O)(=O)N2CCN(CCC#N)CC2)cc1	0.645
COc1ccc(NC(=O)CSc2nc3c(c(=O)n2-c2ccccc2OC)SCC3)cc1	2.67
CCc1c(C)c2c(C)nn(-c3ccccc3)c2[nH]c1=O	1.53
CCOc1ccc(N(CC(=O)NC2CCCC(C)C2C)S(=O)(=O)c2c(C)noc2C)cc1 (stereo unspecified)	0.98
Cc1cccc(Cn2c(SCCN3CCOCC3)nc3c2c(=O)n(C)c(=O)n3C)c1	0.9

Report inhibition for every entry below.
1. CCC1CCCCN1C(=O)CSc1nnc(-c2ccc(Cl)cc2)o1 (stereo unspecified)
2. CN1CCC(NC(=O)c2cccs2)CC1
3. CCN1CCN(c2nc(C)nc3c2sc(=S)n3C)CC1
4. Cc1ccc(O)c(N=CC2=C(O)c3ccccc3C2=O)c1
5. O=C(Cc1cc(=O)[nH]c(=O)[nH]1)NCC1CCCO1 (stereo unspecified)
6. Cc1cccc(NC(=O)c2ccc(S(=O)(=O)N(C)C)cc2)c1

OUT:
[1.89, 0.86, 1.04, 1.85, 0.945, 2.24]
